- TEST_SYSTEM: Probable G-protein coupled receptor 34 (Homo sapiens)
- ASSAY_EXPLANATION: Agonist activity at human GPR34 expressed in HEK293 cells co-transfected with AP-TGFalpha/chimeric Galphaq/i1 assessed as induction of AP-TGFalpha release after 1 hr
- Assay type: cell-based
- DETAILS: read-out: EC50
MEASUREMENT_NAME: pEC50
Scale note: pEC50 = -log10(concentration in M).

Use these answered entries as a reference point.
CPD_SMILES: Cc1ccccc1Oc1cccc(COc2ccccc2CCC(=O)OCCCOP(=O)(O)OC[C@H](N)C(=O)O)c1
RECORDED_MEASUREMENT: 6.74
//
CPD_SMILES: CC(C)(C)c1ccc(Oc2cccc(COc3ccccc3CCC(=O)OCCCOP(=O)(O)OC[C@H](N)C(=O)O)c2)cc1
RECORDED_MEASUREMENT: 6.52
//
CPD_SMILES: N[C@@H](COP(=O)(O)OCCCOC(=O)CCc1ccccc1OCc1cccc(Oc2ccccc2)c1)C(=O)O
RECORDED_MEASUREMENT: 7.05

Query :: # lookup: pEC50 of N[C@@H](COP(=O)(O)OCCCOC(=O)CCc1ccccc1OCc1cccc(Oc2ccc(-c3ccccc3)cc2)c1)C(=O)O
Result :: 7.11

====

A collection of compounds and their measured Intrinsic activity
- TEST_SYSTEM: Probable G-protein coupled receptor 34 (Mus musculus) (UniProt Q9R1K6)
- Sequence (Q9R1K6 whole entry, the tested form may be a part): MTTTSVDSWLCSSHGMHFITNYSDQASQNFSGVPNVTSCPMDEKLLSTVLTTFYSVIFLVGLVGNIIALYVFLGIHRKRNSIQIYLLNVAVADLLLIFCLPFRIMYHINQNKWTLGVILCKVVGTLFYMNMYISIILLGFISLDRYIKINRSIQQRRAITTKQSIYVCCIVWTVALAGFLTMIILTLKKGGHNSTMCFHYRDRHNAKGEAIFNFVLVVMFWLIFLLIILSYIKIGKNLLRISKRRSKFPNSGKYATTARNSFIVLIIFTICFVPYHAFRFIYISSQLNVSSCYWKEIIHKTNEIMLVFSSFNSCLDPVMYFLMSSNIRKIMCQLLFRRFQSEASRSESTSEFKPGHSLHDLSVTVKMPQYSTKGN
- ASSAY_EXPLANATION: Intrinsic activity at mouse GPR34 expressed in HEK293 cells co-transfected with AP-TGFalpha/chimeric […] assessed as induction of ectodomain shedding of membrane bound AP-TGFalpha after 1 hr relative to O-(Hydroxy(((2R,3R)-2-(((3-(2-((3-phenoxybenzyl)oxy)phenyl)- propanoyl)oxy)methyl)tetrahydro-2H-pyran-3-yl)oxy)phosphoryl)- L-serine
- Type: cell-based

CPD_SMILES: CCCCCCCC/C=C\CCCCCCCC(=O)OC[C@@H](O)COP(=O)(O)OC[C@H](N)C(=O)O
Intrinsic activity: 0.26
--
CPD_SMILES: N[C@@H](COP(=O)(O)OCCCOC(=O)CCc1ccccc1OCc1cccc(Oc2ccc(F)cc2)c1)C(=O)O
Intrinsic activity: 0.66

Okay, next one:
Query :: # lookup: Intrinsic activity of N[C@@H](COP(=O)(O)OCCCOC(=O)CCc1ccccc1OCc1cccc(Oc2ccccc2Cl)c1)C(=O)O
Result :: 0.069

====

- TEST_SYSTEM: UniProt:Q9R1K6
- ASSAY_EXPLANATION: Intrinsic activity at mouse GPR34 expressed in HEK293 cells co-transfected with AP-TGFalpha/chimeric […] assessed as induction of ectodomain shedding of membrane bound AP-TGFalpha after 1 hr relative to O-(Hydroxy(((2R,3R)-2-(((3-(2-((3-phenoxybenzyl)oxy)phenyl)- propanoyl)oxy)methyl)tetrahydro-2H-pyran-3-yl)oxy)phosphoryl)- L-serine
- Type: cell-based
Would you mind classing the entries by Intrinsic activity? Ranges: 1: < 0.3; 2: ≥ 0.3 and < 0.5; 3: ≥ 0.5

CPD_SMILES: Nc1ccc(Oc2cccc(COc3ccccc3CCC(=O)OCCCOP(=O)(O)OC[C@H](N)C(=O)O)c2)cc1
TEST_SYSTEM: UniProt:Q9R1K6
LABEL: 1
--
CPD_SMILES: N[C@@H](COP(=O)(O)OCCCOC(=O)CCc1ccccc1OCc1cccc(Oc2cccc(Cl)c2)c1)C(=O)O
TEST_SYSTEM: UniProt:Q9R1K6
LABEL: 3
--
CPD_SMILES: CCc1ccc(Oc2cccc(COc3ccccc3CCC(=O)OCCCOP(=O)(O)OC[C@H](N)C(=O)O)c2)cc1
TEST_SYSTEM: UniProt:Q9R1K6
LABEL: 2
--
CPD_SMILES: CCCCCCOc1ccc(-c2ccc(Oc3cccc(COc4ccccc4CCC(=O)OCCCOP(=O)(O)OC[C@H](N)C(=O)O)c3)cc2)cc1
TEST_SYSTEM: UniProt:Q9R1K6
LABEL: 3
--
CPD_SMILES: N[C@@H](COP(=O)(O)OCCCOC(=O)CCc1ccccc1OCc1cccc(Oc2ccc(Cl)c(Cl)c2)c1)C(=O)O
TEST_SYSTEM: UniProt:Q9R1K6
LABEL: 3

Query :: Into which category would you place N[C@@H](COP(=O)(O)OCCCOC(=O)CCc1ccccc1OCc1cccc(Oc2ccccc2)c1)C(=O)O ?
Result :: 2

Query :: Into which category would you place N#Cc1ccc(Oc2cccc(COc3ccccc3CCC(=O)OCCCOP(=O)(O)OC[C@H](N)C(=O)O)c2)cc1 ?
Result :: 1

Query :: Into which category would you place N[C@@H](COP(=O)(O)OCCCOC(=O)CCc1ccccc1OCc1cccc(Oc2ccc(Cl)cc2)c1)C(=O)O ?
Result :: 3

Query :: Into which category would you place CCCCCCCCCCCOc1ccccc1CCC(=O)OCCCOP(=O)(O)OC[C@H](N)C(=O)O ?
Result :: 1

Query :: Into which category would you place CC(C)(C)c1cccc(-c2ccc(Oc3cccc(COc4ccccc4CCC(=O)OCCCOP(=O)(O)OC[C@H](N)C(=O)O)c3)cc2)c1 ?
Result :: 3

Query :: Into which category would you place COc1ccc(Oc2cccc(COc3ccccc3CCC(=O)OCCCOP(=O)(O)OC[C@H](N)C(=O)O)c2)cc1 ?
Result :: 1

Query :: Into which category would you place CC(C)(C)c1cccc(Oc2cccc(COc3ccccc3CCC(=O)OCCCOP(=O)(O)OC[C@H](N)C(=O)O)c2)c1 ?
Result :: 2

====

- TEST_SYSTEM: Probable G-protein coupled receptor 34 (Mus musculus, UniProt Q9R1K6)
- Sequence (Q9R1K6 whole entry, the tested form may be a part): as above
- ASSAY_EXPLANATION: Agonist activity at mouse GPR34 expressed in HEK293 cells co-transfected with AP-TGFalpha/chimeric Galphaq/i1 assessed as induction of ectodomain shedding of membrane bound AP-TGFalpha after 1 hr
A collection of compounds and their measured EC50
API: value field is a number in µM; no unit string.

Use these answered entries as a reference point.
CPD_SMILES: CC(C)(C)c1cccc(-c2ccc(Oc3cccc(COc4ccccc4CCC(=O)OCCCOP(=O)(O)OC[C@H](N)C(=O)O)c3)cc2)c1
MEASUREMENT_NAME: EC50
RESULT_UNIT: µM
RECORDED_MEASUREMENT: 0.014

CPD_SMILES: Cc1cccc(Oc2cccc(COc3ccccc3CCC(=O)OCCCOP(=O)(O)OC[C@H](N)C(=O)O)c2)c1
MEASUREMENT_NAME: EC50
RESULT_UNIT: µM
RECORDED_MEASUREMENT: 0.55

CPD_SMILES: N#Cc1ccc(Oc2cccc(COc3ccccc3CCC(=O)OCCCOP(=O)(O)OC[C@H](N)C(=O)O)c2)cc1
MEASUREMENT_NAME: EC50
RESULT_UNIT: µM
RECORDED_MEASUREMENT: 2

CPD_SMILES: N[C@@H](COP(=O)(O)OCCCOC(=O)CCc1ccccc1OCc1cccc(Oc2ccc(Cl)cc2)c1)C(=O)O
MEASUREMENT_NAME: EC50
RESULT_UNIT: µM
RECORDED_MEASUREMENT: 0.12

Query :: # lookup: EC50 of N[C@@H](COP(=O)(O)OCCCOC(=O)CCc1ccccc1OCc1cccc(OC2CCCCC2)c1)C(=O)O
Result :: 0.8

Query :: # lookup: EC50 of Nc1ccc(Oc2cccc(COc3ccccc3CCC(=O)OCCCOP(=O)(O)OC[C@H](N)C(=O)O)c2)cc1
Result :: 2.7

Query :: # lookup: EC50 of Cc1ccccc1-c1ccc(Oc2cccc(COc3ccccc3CCC(=O)OCCCOP(=O)(O)OC[C@H](N)C(=O)O)c2)cc1
Result :: 0.078

Query :: # lookup: EC50 of CCCCCCOc1ccc(-c2ccc(Oc3cccc(COc4ccccc4CCC(=O)OCCCOP(=O)(O)OC[C@H](N)C(=O)O)c3)cc2)cc1
Result :: 0.049

====

- TEST_SYSTEM: Probable G-protein coupled receptor 34 (Homo sapiens, UniProt Q9UPC5)
- Sequence (Q9UPC5 whole entry): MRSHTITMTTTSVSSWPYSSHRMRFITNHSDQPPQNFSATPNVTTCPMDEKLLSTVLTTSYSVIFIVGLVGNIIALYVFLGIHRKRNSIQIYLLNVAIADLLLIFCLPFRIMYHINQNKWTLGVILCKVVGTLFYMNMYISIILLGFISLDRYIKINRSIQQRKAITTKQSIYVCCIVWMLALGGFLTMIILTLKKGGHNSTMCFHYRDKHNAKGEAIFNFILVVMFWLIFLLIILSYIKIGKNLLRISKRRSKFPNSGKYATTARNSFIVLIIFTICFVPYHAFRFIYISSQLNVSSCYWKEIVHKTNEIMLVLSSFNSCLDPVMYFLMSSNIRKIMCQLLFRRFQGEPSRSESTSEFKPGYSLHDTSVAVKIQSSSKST
- ASSAY_EXPLANATION: Agonist activity at human GPR34 expressed in HEK293 cells co-transfected with AP-TGFalpha/chimeric Galphaq/i1 assessed as induction of AP-TGFalpha release after 1 hr relative to control
- Type: cell-based
MEASUREMENT_NAME: Emax (%)
API: value field is a number in %; no unit string.

CPD_SMILES: Cc1cccc(Oc2cccc(COc3ccccc3CCC(=O)OCCCOP(=O)(O)OC[C@H](N)C(=O)O)c2)c1
MEASUREMENT_NAME: Emax
RECORDED_MEASUREMENT: 24.2

CPD_SMILES: Cc1ccccc1Oc1cccc(COc2ccccc2CCC(=O)OCCCOP(=O)(O)OC[C@H](N)C(=O)O)c1
MEASUREMENT_NAME: Emax
RECORDED_MEASUREMENT: 22

CPD_SMILES: Cc1ccc(Oc2cccc(COc3ccccc3CCC(=O)OCCCOP(=O)(O)OC[C@H](N)C(=O)O)c2)cc1
MEASUREMENT_NAME: Emax
RECORDED_MEASUREMENT: 22.1

CPD_SMILES: N[C@@H](COP(=O)(O)OCCCOC(=O)CCc1ccccc1OCc1cccc(Oc2ccc(-c3ccc(-c4ccccc4)cc3)cc2)c1)C(=O)O
MEASUREMENT_NAME: Emax
RECORDED_MEASUREMENT: 17

CPD_SMILES: N[C@@H](COP(=O)(O)O[C@@H]1CCCO[C@@H]1COC(=O)CCc1ccccc1OCc1cccc(Oc2ccccc2)c1)C(=O)O
MEASUREMENT_NAME: Emax
RECORDED_MEASUREMENT: 25.6

Query :: # lookup: Emax of CC(C)(C)c1cccc(-c2ccc(Oc3cccc(COc4ccccc4CCC(=O)OCCCOP(=O)(O)OC[C@H](N)C(=O)O)c3)cc2)c1
Result :: 18.8

Query :: # lookup: Emax of N[C@@H](COP(=O)(O)OCCCOC(=O)CCc1ccccc1OCc1cccc(Oc2ccccc2)c1)C(=O)O
Result :: 21.7

Query :: # lookup: Emax of CC(C)(C)c1ccc(Oc2cccc(COc3ccccc3CCC(=O)OCCCOP(=O)(O)OC[C@H](N)C(=O)O)c2)cc1
Result :: 28.2

Query :: # lookup: Emax of N[C@@H](COP(=O)(O)OCCCOC(=O)CCc1ccccc1OCc1cccc(Oc2ccc(-c3ccccc3)cc2)c1)C(=O)O
Result :: 23

Data credit: ChEMBL document CHEMBL4011662
